Target: Neu5Ac(a2-3)GalNAc
Experiment: glycan array binding signal (z-score within array); higher = stronger binding
Details: glycan notation: IUPAC condensed, linker removed
Shown is part of a subset that was picked to be rich in the strongest signals.
Metric name: glycan array binding signal (z-score)

Binder	Number
SP8524D-bot-399-27-399 (Bacteroides ovatus) (protein) DAKYDTLDTHAYIEEALSSTSQKVTVQATGESFTTLNVHLSNLSSTDNHYKLVTDQSVLDTYNHINGTGYIMLPKDYYTLPETITVKAGQYAADALSIALKAFSQEMMKSGESYALPVKLVLQDGSISPMENTGTFVILAESIIEFSAPMFVGAPSLKANKFTESPETYSQYTIEVRFQVANTADRDRAVFKNGGDDANFILLRFEDPQSDNENYKAHSLVQIVGRNRLYLNPSNSFKPNEWQHLALVCDGSNYRLYINGVDSGVLSIPTGATTFSDVNWFCLGDDSYSRWGNCKILMSEARIWSVVRSASQIQNNMTQVSPKSVGLEAYWRFNEGQGNVFEDATGKGHTLTTSATPTWIDGILSTDKSTEWK	-0.038
AT5G01260(PC)(40) (Arabidopsis thaliana), Q9LFB0 (protein) MIGIGRTLTSSSPSKIILEDLPPGIYRYGTEIFTSVPRKTFHHIKFLRLDSAQSSRILKPVPLRSSSIKDSQVNVEDEEIEASNKTVRVRFQLRKECVFGEHFFIVGDDPVFGGLWDPETALPLNWSDGNVWTVDLDLPVGRLVEFKLLLKAQTGEILWQPGPNRALETWETNKTIRICEDWDNADLQMMIEEDFVPYTNISSIGSEDEDEVLGSVQQNSSVVAVENAGYVSDESAQNSSFSIQSEKTMEPSNGALTAREVIKEAMFTEEESPVLVPGLIPLSDLDNEQVEVINEGKAETFPEVDKKQEPKAERNKKAKVKAISLFEKSEQEAVKSVEQRQYNAVEEEQQRLETEPLGTPDVLFENDIQWGRRTLYKLLSNFRLF	-0.206
MIG/CXCL9 (Homo sapiens) (protein) TPVVRKGRCSCISTNQGTIHLQSLKDLKQFAPSPSCEKIEIIIATLKNGVQTCLNPDSADVKELIKKTEKQVSQKKKQKNGKKHQKKKVLKVRKSQRSRQKKTT	-0.254
